- System: PRKCH
- test parameters: concentration: 1 μM, replicates: in singlicate; n = 1
Field: label. Allowed values: t (%Inh < 2%) or f (%Inh >= 2%).

Please determine if COc1ccccc1-c1ccc2c(NC(=O)C3CC3)n[nH]c2n1 [SB-711239] is below 2% in terms of %Inh. f

Is it true that %Inh reported for COC(=O)c1c(-c2ccccc2)c2cc(OC)ccc2c(=O)n1Cc1ccccc1 is less than 2%? f

Given Cc1csc(-c2nc(Nc3ccncc3)c3ccccc3n2)n1 [GW869640] , is recorded %Inh strictly lower than 2%? t

Lab note: %Inh threshold 2%. Does this compound come in strictly under it? Cn1cncc1-c1ccc2ncnc(Nc3ccc(OCc4ccccc4)cc3)c2c1 [GW320571] f

Is 2% strictly greater than the compound's reported %Inh? compound: C[C@@H]1CCCCN1c1cc(-c2ccc3c(N)n[nH]c3c2)nc(N)n1 [GSK2258759] t

For this compound, is %Inh lower than 2%? Nc1nc(-c2nccs2)c(-c2ccnc3ccccc23)s1 [GW693542] f

Hello, is %Inh of the following compound strictly smaller than 2%? COc1cc2ncnc(Nc3ccc4nc(-c5ccccc5)[nH]c4c3)c2cc1OC.Cl [GW282450] t

%Inh strictly < 2% for this compound? CCn1c(-c2cccnc2O)nc2cnccc21 [SB-736715] t

Lab note: confirm whether the reported %Inh for this compound is below 2%, equality not counting. compound: Cn1ccc2ncnc(Oc3cccc(C(=O)Nc4ccccc4)c3)c21 t

%Inh strictly < 2% for this compound? COc1cccc(-c2cc(-c3c[nH]nc3-c3ccccn3)ccn2)c1 [GW680338] t

A record lists CS(=O)(=O)c1ccc(-c2nc3n(c2-c2ccncc2)CCC3)cc1 [SKF-105942] . Is its %Inh below 2%? t

Hello, I'm reviewing records and need to know if %Inh of CCn1c(-c2ccccn2)nc2cnccc21 [SB-736398] is below 2%. Could you check? t

Below 2% on %Inh? Entry CS(=O)(=O)c1ccc(-c2c(-c3ncn[nH]3)sc(N3CCOCC3)c2C#N)cc1 f

Report whether reported %Inh is lower than 2% (strictly) for Cl.NC(=O)c1cccc(Nc2nccc(Nc3ccc(Oc4cccc(Cl)c4)c(Cl)c3)n2)c1 [GW659008] f

Is %Inh of Fc1cccc(COc2nnc(-c3ccc4c(c3)CCO4)o2)c1 strictly below 2%? t

Determine whether this compound shows %Inh lower than 2% (ties excluded): O=C(Nc1n[nH]c2nc(-c3nccs3)c(Br)cc12)C1CC1 [SB-742251] t

In the record for Cc1cccc(-c2cc(Nc3ccncc3)c3ccccc3n2)n1 [GSK223675] , is %Inh less than 2%? t

Say whether its %Inh is strictly beneath 2%. Entry: O=C(Nc1ccccc1)Nc1cccc(Oc2ccc3nccn3n2)c1 t

is_below(%Inh, 2%) for COc1ccc2nc(-c3cccc(C)n3)nc(Nc3ccncc3)c2c1 [GSK204919] ? f

In plain terms, does COC(=O)c1c(-c2ccccc2)c2cc(C(=O)O)ccc2c(=O)n1Cc1ccccc1 come in under 2% for %Inh? f

State whether 2% exceeds %Inh recorded for CCCc1ccc(S(=O)(=O)NC2CCN(c3ccnc(Nc4ccc(F)cc4)n3)C2)cc1 (stereo not shown) [GSK1379715] . f

Is 2% strictly greater than the compound's reported %Inh? compound: COc1ccccc1CNC(=O)c1cc(C(=O)c2ccccc2C)c[nH]1 [GSK364507] f

API: query returns whether the compound falls strictly under 2% in %Inh. Query: Cc1ccc(-c2cc(-c3c[nH]nc3-c3ccccn3)ccn2)cc1 [GW684088] t

API: query returns whether the compound falls strictly under 2% in %Inh. Query: Cl.O=C(Nc1cccc(-c2nn3ncccc3c2-c2ccnc(Nc3cccnc3)n2)c1)c1c(F)cccc1F [GSK312879] f

Quick check: does COc1ccc(CNC(=O)NC2CCN(c3ccnc(Nc4cc(OC)c(OC)c(OC)c4)n3)C2)cc1 (stereo not shown) [GSK1379748] have %Inh under 2%? t

In the record for COc1ccc(Nc2nccc(-c3cccc(NC(=O)c4cc5cc(F)ccc5[nH]4)c3)n2)cc1 [GSK1229782] , is %Inh less than 2%? f

Regarding CC(C)(C)c1ccc(C(=O)Nc2cn3cc(-c4cccnc4)ccc3n2)cc1 , kindly confirm whether its %Inh is beneath 2%. t

Could you please tell me whether %Inh recorded for Cl.c1ccc(-c2n[nH]cc2-c2ccnc(-c3ccc(CN4CCOCC4)cc3)c2)nc1 [GW776245] is less than 2%? t

Take the compound Cc1cccc(-c2nc(Nc3cccc(C(N)=O)c3)c3ccccc3n2)n1 [GW876019] and say whether its %Inh is less than 2%. t

For this compound, is %Inh lower than 2%? O=C(Nc1ccc2c(c1)OCO2)NC1CCN(c2ccnc(Nc3ccc(F)cc3)n2)C1 (stereo not shown) [GSK1379724] t

Please let me know if O=C1NC(=O)C(N2CCc3ccccc32)=C1c1ccccc1Cl [SB-373598] shows %Inh below 2%. f

Just wondering, is %Inh of Cn1ccc2ncnc(Oc3ccc(NC(=O)Nc4ccccc4)cc3)c21 below 2%? t

Confirm or reject: %Inh of COc1ccc(C2=C(Nc3cccc(C(=O)O)c3)C(=O)NC2=O)cc1 [SB-390765] lies strictly below 2% f

Strictly below 2%: is that where %Inh of Cc1nnc(-c2ccc3occ(-c4ccc(S(C)=O)cc4)c3c2)[nH]1 (stereo not shown) sits? t

Please let me know if Cc1c(Cn2ccn3c(=O)cc(N4CCOCC4)nc23)cccc1C(F)(F)F [GSK2289044] shows %Inh below 2%. f

---

- System: MKNK1
- test parameters: concentration: 1 μM, replicates: in singlicate; n = 1
value kind: %Inh

Let me know recorded %Inh for COc1ccc(CNC(=O)NC2CCN(c3ccnc(Nc4cc(OC)c(OC)c(OC)c4)n3)C2)cc1 (centres unmarked) [GSK1379748] , thanks. 8%

In one line, give reported %Inh of the entry CSc1nn2c(=O)cc(N3CCOCC3)nc2n1Cc1cccc(C(F)(F)F)c1C [GSK2363608] . 0%

In one line, give reported %Inh of the entry Cc1ccccc1-n1cnc2c(N)ncnc21 [SKF-97510] . 0%

Determine from records and report %Inh for Cc1csc(-c2nc(Nc3ccncc3)c3ccccc3n2)n1 [GW869640] 0%

Supply recorded %Inh for Cc1ccc(NC(=O)Nc2cccc(Cl)c2)cc1-c1ccc(C(=O)Nc2ccncc2)cc1 [GSK1398468] here. 6%

---

- Test system: PHKG2
- test parameters: concentration: 1 μM, replicates: in singlicate; n = 1
value kind: %Inh (%)
The reply should be a number in %, with the unit left off.

// fetch %Inh for Fc1cccc(COc2nnc(-c3ccc4c(c3)CCO4)o2)c1 ; system: PHKG2 0

Look up PHKG2 data: %Inh of Cc1cccc(-c2nc(Nc3ccc4[nH]ncc4c3)c3ccccc3n2)n1 , then report it. 16

Print PHKG2 %Inh for Cc1cccc(-c2nc(-c3ccc(S(C)(=O)=O)cc3)sc2-c2ccnc(NCCc3ccccc3)c2)c1 . 9

Report value only: %Inh, PHKG2, Cc1c(O)cccc1Nc1ccnc2ccc(C(F)(F)F)cc12.Cl 0

Supply %Inh measured with PHKG2 for Cn1ccc2ncnc(Oc3ccc(NC(=O)Nc4ccccc4)cc3)c21 . 0

---

- System: GCN2(Kin.Dom.2,S808G)
- Construct: gene EIF2AK4
- test parameters: concentration: 1 μM, replicates: in singlicate; n = 1
Please go through the items and note down their %Inh.
Answer in %, number only, no unit symbol.

Determine from records and report %Inh for NC(=O)c1nnc2ccccc2c1N 13

Give me measured %Inh, please, for this compound: Cn1ccc2ncnc(Oc3ccc(Nc4nc5ccccc5[nH]4)cc3)c21 0

Give the measured %Inh for COc1ccc(CNC(=O)NC2CCN(c3ccnc(Nc4cc(OC)c(OC)c(OC)c4)n3)C2)cc1 (stereo not drawn) 0

---

- Test system: TAOK1
- test parameters: concentration: 1 μM, replicates: in singlicate; n = 1
Could you please report measured %Inh for the items listed next?
Return type: number; implicit unit %.

Return reported %Inh. Input molecule: Cn1ccc2ncnc(Oc3ccc(NC(=O)Nc4ccccc4)cc3)c21 0

Tell me measured %Inh for CCn1c(-c2cccnc2O)nc2cnccc21 please. 0

Note down %Inh recorded for COc1ccc(CNC(=O)NC2CCN(c3ccnc(Nc4cc(OC)c(OC)c(OC)c4)n3)C2)cc1 (centres unmarked) 0

Report measured %Inh; entry is NC(=O)c1nnc2ccccc2c1N 20

State its %Inh for this molecule: Cc1c(Cn2ccn3c(=O)cc(N4CCOCC4)nc23)cccc1C(F)(F)F 0

---

For reference, Kd measured on AAK1:

Complete the entry with Kd for COc1ccc(Nc2nccc(NCCNC(=O)Nc3ccccc3F)n2)cc1 [GSK1379901] > 10 µM

Return Kd for the following molecule: CN1C(=O)C(Nc2ccc(Cl)c(C(=O)O)c2)=C(c2ccc(Cl)cc2)C1=O [SB-404290] > 10 µM

Complete the entry with Kd for Cc1cccc(-c2nc(C)cc(Nc3ccncc3)n2)n1 [GSK257997] > 10 µM
